These data points were gathered from ChEMBL document CHEMBL4138192.

- protocol: Growth inhibition of human A375 cells at 25 uM after 48 hrs by SRB assay relative to control
- Type: cell-based, A-375
- protocol_conditions: read-out: GI
Categorize each record by its inhibition at 48 h, 25 µM using range 1 = under 6%, range 2 = from 6% up to 10%, range 3 = 10% and over

The examples below pair each entry with its known result.
1) Oc1ccc(CCc2cc(O)cc(O)c2)cc1 [DIHYDRORESVERATROL] :: range 2
2) O=C(OCc1ccccc1)Oc1ccc(CCc2cc(OC(=O)OCc3ccccc3)cc(OC(=O)OCc3ccccc3)c2)cc1 :: range 2
3) O=C(Oc1ccc(CCc2cc(OC(=O)C3CCCC3)cc(OC(=O)C3CCCC3)c2)cc1)C1CCCC1 :: range 3
4) O=C1O[C@H]([C@@H](O)CO)C(O)=C1O :: range 2
5) O=C(Oc1ccc(CCc2cc(OC(=O)c3ccccc3)cc(OC(=O)c3ccccc3)c2)cc1)c1ccccc1 :: range 1

Prompt: Which class does "C=CCOc1ccc(CCc2cc(OCC=C)cc(OCC=C)c2)cc1" fall in?
Completion: range 2

Prompt: Input "O=C(Oc1ccc(CCc2cc(OC(=O)c3ccc(Cl)cc3)cc(OC(=O)c3ccc(Cl)cc3)c2)cc1)c1ccc(Cl)cc1"
Completion: range 3

Prompt: // same read-out, input: "CCCOc1ccc(CCc2cc(OCCC)cc(OCCC)c2)cc1"
Completion: range 1

Prompt: Let us now turn to "C=CC(=O)Oc1ccc(CCc2cc(OC(=O)C=C)cc(OC(=O)C=C)c2)cc1"
Completion: range 3

Prompt: Also, "CCCC(=O)Oc1ccc(CCc2cc(OC(=O)CCC)cc(OC(=O)CCC)c2)cc1" please.
Completion: range 3

Prompt: Same again, this time with "CC(C)(C)C(=O)Oc1ccc(CCc2cc(OC(=O)C(C)(C)C)cc(OC(=O)C(C)(C)C)c2)cc1"
Completion: range 2

###

- protocol: Growth inhibition of mouse B16 cells at 25 uM after 48 hrs by SRB assay relative to control
- Assay type: cell-based
- protocol_conditions: read-out: GI
This listing pairs molecules with measured inhibition at 48 h, 25 µM.

Consider the worked cases shown below.
1) COc1ccc(C(=O)Oc2ccc(CCc3cc(OC(=O)c4ccc(OC)cc4)cc(OC(=O)c4ccc(OC)cc4)c3)cc2)cc1 :: 5.12%
2) O=C(OCc1ccccc1)Oc1ccc(CCc2cc(OC(=O)OCc3ccccc3)cc(OC(=O)OCc3ccccc3)c2)cc1 :: 5.12%
3) CCCC(=O)Oc1ccc(CCc2cc(OC(=O)CCC)cc(OC(=O)CCC)c2)cc1 :: 4.81%

Below: the item to evaluate.
Prompt: Quick one: inhibition at 48 h, 25 µM of "O=C(Oc1ccc(CCc2cc(OC(=O)c3ccccc3)cc(OC(=O)c3ccccc3)c2)cc1)c1ccccc1" ?
Completion: 4.92%

###

Measured Activity by item
- tested_on: Tyrosinase (Mus musculus)
- protocol: Inhibition of tyrosinase in mouse B16 cells assessed as effect on alpha-MSH-induced melanin formation at 25 uM after 24 hrs relative to control
- Format: cell-based
- Design: scale not given: the % may be the effect or the level left
Answer shape: numeric part, then the unit.

Prompt: Which Activity is listed for "CCCOc1ccc(CCc2cc(OCCC)cc(OCCC)c2)cc1" ?
Completion: 94.7%

Prompt: Follow-up entry: "COc1ccc(C(=O)Oc2ccc(CCc3cc(OC(=O)c4ccc(OC)cc4)cc(OC(=O)c4ccc(OC)cc4)c3)cc2)cc1"
Completion: 94.7%

Prompt: Lookup "CC(C)(C)C(=O)Oc1ccc(CCc2cc(OC(=O)C(C)(C)C)cc(OC(=O)C(C)(C)C)c2)cc1"
Completion: 93%

Prompt: Next entry: "C=CC(=O)Oc1ccc(CCc2cc(OC(=O)C=C)cc(OC(=O)C=C)c2)cc1"
Completion: 76%

Prompt: Also "O=C1O[C@H]([C@@H](O)CO)C(O)=C1O" ?
Completion: 83.7%
